Measured values drawn from the supplement of paper PMC10515830 for this set.

# Test system: Danio rerio larvae (5 dpf)
# Test details: difference in activity during first hour vs DMSO (percentage points); higher = more activity than DMSO
# Run conditions: 10 µM; exposure time 6 h
Structures can show the parent of a compound that is named as a salt.
Measurement kind: difference in activity during first hour

INSERT INTO assay_data (molecule, measured_result) VALUES
  ('O=C(NC[C@H]1CN(c2ccc(N3CCOCC3=O)cc2)C(=O)O1)c1ccc(Cl)s1', -2.47),
  ('COC(=O)C1=C(C)NC(C)=C(C(=O)OC(C)C)C1c1cccc2nonc12 (centres undefined)', -0.814),
  ('Cc1cc(C)cc(OCC2CNC(=O)O2)c1 (centres undefined)', 0.609),
  ('CCCCCCCCc1ccc(CCC(N)(CO)CO)cc1', -2.73),
  ('NCCCCCC(=O)O', 5.22),
  ('Nc1ccn(C[C@@H](CO)OCP(=O)(O)O)c(=O)n1', -7.68),
  ('CN(C)CC/C=C1/c2ccccc2COc2ccc(CC(=O)O)cc21 [Olopatadine (hydrochloride)]', -6.94),
  ('O=P(O)(O)C(O)(Cc1cccnc1)P(=O)(O)O [Risedronate (sodium salt)]', 24.7),
  ('CN(C/C=C/C#CC(C)(C)C)Cc1cccc2ccccc12 [Terbinafine (hydrochloride)]', 1.02);
